procedureText: Intrinsic in-vitro skin permeability of TA-3090 at various pH conditions (side-by-side diffusion cell)
Format: in vitro ADME, hairless mouse
assayConditions: mouse; donor side pH 7; skin permeation rate/solubility; mean and SD, n=3
readoutType: Papp (×10⁻⁶ cm/s)
Give bare numbers, in ×10⁻⁶ cm/s.

Form field Papp, entry COc1ccc([C@@H]2Sc3cc(Cl)ccc3N(CCN(C)C)C(=O)[C@@H]2OC(C)=O)cc1 [TA-3090] : 13.4

----------
procedureText: in vivo
assayConditions: guinea pig, plasma, topical or ocular
readoutType: concentration at 4 h (ng/mL)
Numbers only, in ng/mL.

Form field concentration at 4 h, entry `COc1ccc([C@@H]2Sc3cc(Cl)ccc3N(CCN(C)C)C(=O)[C@@H]2OC(C)=O)cc1` : 11.4

----------
procedureText: in vivo
assayConditions: guinea pig, plasma, topical or ocular
readoutType: concentration at 24 h (ng/mL)
Numbers only, in ng/mL.

Form field concentration at 24 h, entry `COc1ccc([C@@H]2Sc3cc(Cl)ccc3N(CCN(C)C)C(=O)[C@@H]2OC(C)=O)cc1` : 75.6

----------
procedureText: Solubility of TA-3090 in donor solution
Type: physicochemical
assayConditions: aqueous buffer; donor side pH 9; phosphate buffer; 37° C.; mean and SD, n=3
readoutType: solubility (µg/mL)
Numbers only, in µg/mL.

Form field solubility, entry `COc1ccc([C@@H]2Sc3cc(Cl)ccc3N(CCN(C)C)C(=O)[C@@H]2OC(C)=O)cc1` : 60

----------
procedureText: in vivo
assayConditions: guinea pig, plasma, topical or ocular
readoutType: concentration at 8 h (ng/mL)
Give bare numbers, in ng/mL.

Form field concentration at 8 h, entry `COc1ccc([C@@H]2Sc3cc(Cl)ccc3N(CCN(C)C)C(=O)[C@@H]2OC(C)=O)cc1` : 32.5

----------
procedureText: Intrinsic in-vitro skin permeability of TA-3090 at various pH conditions (side-by-side diffusion cell)
Assay type: in vitro ADME, hairless mouse
assayConditions: mouse; donor side pH 9; skin permeation rate/solubility; mean and SD, n=3
Experimental: TA-3090 skin permeability was determined using a freshly excised hairless mouse skin and a side-by-side type of diffusion cell (available from Crown Glass Co., Somerville, N.J.). […] From the concentration profiles of TA-3090 in the receptor compartment, the flux (mcg/cm^2) of skin permeation was calculated using a computer program and then plotted as a function of time (hour). […]
readoutType: Papp (×10⁻⁶ cm/s)
Give bare numbers, in ×10⁻⁶ cm/s.

Form field Papp, entry `COc1ccc([C@@H]2Sc3cc(Cl)ccc3N(CCN(C)C)C(=O)[C@@H]2OC(C)=O)cc1` : 30.6
